# Study system: T1, human TfR extracellular domain with N-terminal His tag (human, UniProt P02786 89-760)
# T1 construct: Biotinylated in some assays; also called huTfR; HuTfR
# T1 sequence (P02786 89-760 G142S): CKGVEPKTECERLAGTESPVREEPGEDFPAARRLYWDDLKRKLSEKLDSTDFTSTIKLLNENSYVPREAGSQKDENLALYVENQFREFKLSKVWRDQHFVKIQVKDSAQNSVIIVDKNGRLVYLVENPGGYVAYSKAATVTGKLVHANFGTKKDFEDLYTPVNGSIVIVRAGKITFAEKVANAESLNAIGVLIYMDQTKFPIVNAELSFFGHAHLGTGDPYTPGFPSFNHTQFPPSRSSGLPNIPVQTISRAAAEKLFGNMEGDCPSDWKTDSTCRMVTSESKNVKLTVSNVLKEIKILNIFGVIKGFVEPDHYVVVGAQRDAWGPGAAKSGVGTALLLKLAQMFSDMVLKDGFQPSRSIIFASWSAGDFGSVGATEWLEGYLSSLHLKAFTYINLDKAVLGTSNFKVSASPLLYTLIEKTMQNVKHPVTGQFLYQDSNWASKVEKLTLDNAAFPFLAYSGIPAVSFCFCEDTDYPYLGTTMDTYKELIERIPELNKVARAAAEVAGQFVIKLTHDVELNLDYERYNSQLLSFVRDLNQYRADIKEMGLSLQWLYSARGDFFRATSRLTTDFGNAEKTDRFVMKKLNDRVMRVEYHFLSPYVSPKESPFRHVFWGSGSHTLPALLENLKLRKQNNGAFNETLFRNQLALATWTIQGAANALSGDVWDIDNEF
# Experiment: ELISA, IgG;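 also: ELISA of IgG-containing supernatants tested in 1:5 serial dilutions for 1 h, bound antibody read out with HRP anti-kappa antibody and TMB substrate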
Items are presented alongside their recorded EC50.
Number only, in µg/mL; omit the unit.

Below, each entry is followed by its recorded EC50 result.
Binder	Endpoint unit	Endpoint value
G95A (antibody, V domains shown, also called 7A4.v15 G95A (CDR-H3) IgG; copies: 2 + 2) VH: EVQLVQSGAEVKKPGASVKVSCKGSGYTFTDYAMHWVRQAPGQGLEWMGGISTYFGRTNYNQKFKGRVTMTVDTSISTAYMELSRLRSDDTAVYYCARALSGNYVMDYWGQGTTVTVSS VL: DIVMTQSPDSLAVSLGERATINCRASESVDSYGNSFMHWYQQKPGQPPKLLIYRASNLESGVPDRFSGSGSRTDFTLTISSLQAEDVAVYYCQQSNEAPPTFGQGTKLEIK	µg/mL	0.0135
M100bA (antibody, V domains shown, also called 7A4.v15 M100bA (CDR-H3) IgG; copies: 2 + 2) VH: EVQLVQSGAEVKKPGASVKVSCKGSGYTFTDYAMHWVRQAPGQGLEWMGGISTYFGRTNYNQKFKGRVTMTVDTSISTAYMELSRLRSDDTAVYYCARGLSGNYVADYWGQGTTVTVSS VL: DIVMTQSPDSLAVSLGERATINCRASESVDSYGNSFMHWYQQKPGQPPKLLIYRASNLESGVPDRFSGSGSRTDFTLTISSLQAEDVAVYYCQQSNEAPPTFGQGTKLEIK	µg/mL	0.0161
Y102A (antibody, V domains shown, also called 7A4.v15 Y102A (CDR-H3) IgG; copies: 2 + 2) VH: EVQLVQSGAEVKKPGASVKVSCKGSGYTFTDYAMHWVRQAPGQGLEWMGGISTYFGRTNYNQKFKGRVTMTVDTSISTAYMELSRLRSDDTAVYYCARGLSGNYVMDAWGQGTTVTVSS VL: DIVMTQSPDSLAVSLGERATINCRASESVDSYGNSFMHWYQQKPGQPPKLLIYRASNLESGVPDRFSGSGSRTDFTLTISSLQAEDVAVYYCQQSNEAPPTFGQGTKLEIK	µg/mL	0.0126
L96A (antibody, V domains shown, also called 7A4.v15 L96A (CDR-H3) IgG; copies: 2 + 2) VH: EVQLVQSGAEVKKPGASVKVSCKGSGYTFTDYAMHWVRQAPGQGLEWMGGISTYFGRTNYNQKFKGRVTMTVDTSISTAYMELSRLRSDDTAVYYCARGASGNYVMDYWGQGTTVTVSS VL: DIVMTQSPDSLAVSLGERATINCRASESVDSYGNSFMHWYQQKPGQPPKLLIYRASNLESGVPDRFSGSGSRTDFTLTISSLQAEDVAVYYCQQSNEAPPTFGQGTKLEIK	µg/mL	0.0155
Y100A (antibody, V domains shown, also called 7A4.v15 Y100A (CDR-H3) IgG; copies: 2 + 2) VH: EVQLVQSGAEVKKPGASVKVSCKGSGYTFTDYAMHWVRQAPGQGLEWMGGISTYFGRTNYNQKFKGRVTMTVDTSISTAYMELSRLRSDDTAVYYCARGLSGNAVMDYWGQGTTVTVSS VL: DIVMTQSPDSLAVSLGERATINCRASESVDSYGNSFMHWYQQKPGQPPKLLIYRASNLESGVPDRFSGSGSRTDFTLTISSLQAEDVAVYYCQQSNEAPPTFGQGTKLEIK	µg/mL	0.0159

From here, focus on the item given below.
INPUT: Need EC50 of N99A (antibody, V domains shown, also called 7A4.v15 N99A (CDR-H3) IgG; copies: 2 + 2) VH: EVQLVQSGAEVKKPGASVKVSCKGSGYTFTDYAMHWVRQAPGQGLEWMGGISTYFGRTNYNQKFKGRVTMTVDTSISTAYMELSRLRSDDTAVYYCARGLSGAYVMDYWGQGTTVTVSS VL: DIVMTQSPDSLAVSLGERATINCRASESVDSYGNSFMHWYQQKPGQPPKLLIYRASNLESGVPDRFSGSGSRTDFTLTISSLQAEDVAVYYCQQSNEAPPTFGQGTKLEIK , thanks.
OUTPUT: 0.017
